Parameter: total protein half-life in vivo. Scope: all listed entries.
- Assay Notes: total protein half-life in vivo (active degradation + dilution); higher = more stable protein
- Applied Conditions: E. coli NCM3722 delta-clpP; growth: N-lim chemostat; doubling time 6 h
Observed Property: total protein half-life in vivo (h)

Monomer Sequence	Observed Property	Value Prefix	Endpoint Result
MQENYKILVVDDDMRLRALLERYLTEQGFQVRSVANAEQMDRLLTRESFHLMVLDLMLPGEDGLSICRRLRSQSNPMPIIMVTAKGEEVDRIVGLEIGADDYIPKPFNPRELLARIRAVLRRQANELPGAPSQEEAVIAFGKFKLNLGTREMFREDEPMPLTSGEFAVLKALVSHPREPLSRDKLMNLARGREYSAMERSIDVQISRLRRMVEEDPAHPRYIQTVWGLGYVFVPDGSKA [P0AA16]	total protein half-life in vivo	=	6.03
MGKSIVVVSAVNFTTGGPFTILKKFLAATNNKENVSFIALVHSAKELKESYPWVKFIEFPEVKGSWLKRLHFEYVVCKKLSKELNATHWICLHDITANVVTKKRYVYCHNPAPFYKGILFREILMEPSFFLFKMLYGLIYKINIKKNTAVFVQQFWMKEKFIKKYSINNIIVSRPEIKLSDKSQLTDDDSQFKNNPSELTIFYPAVPRVFKNYELIISAARKLKEQSNIKFLLTISGTENAYAKYIISLAEGLDNVHFLGYLDKEKIDHCYNISDIVCFPSRLETWGLPLSEAKERGKWVLASDFPFTRETLGSYEKKAFFDSNNDDMLVKLIIDFKKGNLKKDISDANFIYRNENVLVGFDELVNFITEEH	total protein half-life in vivo	>	8
